In this section we review reported EC50 values for a set of compounds.
- Tested on: HIV-1 clinical isolates
- measurement_notes: Antiviral assay against HIV-1 clinical isolates in fresh human PBMCs (RT endpoint)
- cond: Human immunodeficiency virus 1, PBMC, HIV-1 subtype C isolate 93IN905, human PBMCs

Past entries and their recorded results:
[[record]]
compound = "C[C@@H]1CCO[C@H]2Cn3cc(C(=O)NCc4ccc(F)cc4F)c(=O)c(O)c3C(=O)N12 [DTG, Dolutegravir]"
system_under_test = "HIV-1 clinical isolates"
measured_metric = "EC50"
result = "0.17 nM"

[[record]]
compound = "Cc1cn([C@H]2C[C@H](N=[N+]=[N-])[C@@H](CO)O2)c(=O)[nH]c1=O [AZT, zidovudine]"
system_under_test = "HIV-1 clinical isolates"
measured_metric = "EC50"
result = "1.6 nM"


Now look at this one.
For O=C(NCc1c(F)cc(F)cc1F)c1cn2c(c(O)c1=O)C(=O)N1[C@H]3CC[C@H](C3)O[C@@H]1C2 [BIC, Bictegravir] , what is its reported EC50? 0.15 nM
